# SYSTEM UNDER TEST: Soybean lipoxygenase (Type I-B) (Glycine max, UniProt P08170)
# Construct: purchased Merck (KGaA, Darmstadt, Germany)
# Sequence (P08170 whole entry): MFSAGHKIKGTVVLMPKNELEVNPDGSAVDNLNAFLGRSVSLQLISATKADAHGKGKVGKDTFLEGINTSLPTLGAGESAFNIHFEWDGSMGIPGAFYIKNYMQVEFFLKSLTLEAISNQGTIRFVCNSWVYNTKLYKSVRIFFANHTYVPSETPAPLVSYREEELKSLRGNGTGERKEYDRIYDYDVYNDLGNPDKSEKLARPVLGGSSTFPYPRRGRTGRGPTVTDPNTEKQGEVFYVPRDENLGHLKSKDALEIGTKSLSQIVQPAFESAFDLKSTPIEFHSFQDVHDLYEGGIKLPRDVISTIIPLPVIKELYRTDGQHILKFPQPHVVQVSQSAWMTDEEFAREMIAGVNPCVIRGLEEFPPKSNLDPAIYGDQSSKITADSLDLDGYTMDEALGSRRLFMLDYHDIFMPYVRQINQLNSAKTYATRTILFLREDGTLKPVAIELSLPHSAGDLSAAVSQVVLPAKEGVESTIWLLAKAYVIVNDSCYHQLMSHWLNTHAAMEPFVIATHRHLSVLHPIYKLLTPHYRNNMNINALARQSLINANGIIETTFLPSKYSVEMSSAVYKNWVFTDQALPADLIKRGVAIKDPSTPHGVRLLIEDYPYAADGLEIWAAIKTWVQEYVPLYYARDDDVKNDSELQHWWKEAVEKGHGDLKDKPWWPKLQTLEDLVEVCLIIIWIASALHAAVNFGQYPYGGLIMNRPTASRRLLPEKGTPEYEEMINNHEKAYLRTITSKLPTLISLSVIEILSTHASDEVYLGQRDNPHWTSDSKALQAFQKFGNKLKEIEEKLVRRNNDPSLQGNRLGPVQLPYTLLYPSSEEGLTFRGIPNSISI
# METHOD NOTES: In vitro LOX inhibition assay
# Type: biochemical
# CONDITION NOTES: sodium linoleate substrate, tris buffer pH 9; read-out: IC50 (µM), in vitro lipoxygenase inhibitory activity
Please note: IC50 exactly at 50 µM is NO. Only values below 50 µM get YES.

NNC(=O)c1cc(O)c(O)c(O)c1 [H-2, 3,4,5-trihydroxybenzohydrazide]; YES

Find out if reported IC50 for C/C(NNC(=O)c1ccc(O)c(O)c1O)=C1\C(=O)Oc2ccccc2C1=O [PCH-1] is less than 50 µM
YES

Below 50 µM on IC50? Entry CC(=O)c1c(O)c2ccccc2oc1=O [3AcHyC, 3-acetyl-4-hydroxycoumarin]
NO

Given the entry NNC(=O)c1ccc(O)c(O)c1O [H-1, 2,3,4-trihydroxybenzohydrazide] , would its reported IC50 be below 50 µM?
NO

Bench note: check whether C/C(NNC(=O)c1cc(O)c(O)c(O)c1)=C1\C(=O)Oc2ccccc2C1=O [PCH-2] shows IC50 below 50 µM
YES
